Test system: XIP peptide (Xip251-270)
PROCEDURE TEXT: small-molecule binders of XIP peptide, primary screen, biochemical, small-molecule microarray, fluorescence 635/667 nm, 0.5 µg/mL protein (AID 1183)
TEST CONTEXT: small-molecule microarray binding, fluorescence 635 nm; higher = more signal
Items are presented alongside their recorded composite z-score.
Keep it simple and answer with nothing but the number.

compound=CO[C@H]1O[C@H](CO)[C@@H](OC(=O)c2ccc(Br)cc2)[C@@H]2OC(=O)[C@@H](Cc3ccc4ccccc4c3)C/C=C/C[C@H](Cc3ccc4ccccc4c3)C(=O)O[C@@H]12 val=0.266
compound="COC1(C)CN(Cc2ccccc2Br)[C@H](/C=C/c2ccccc2)[C@H](Cc2ccccc2)O1 (some centres not stated)" val=-0.13
compound=CC(C)CN1C(=O)[C@@]2(Cc3ccccc31)c1ccccc1C(=O)N(Cc1ccccc1C(F)(F)F)[C@H]2c1ccc(CO)cc1 val=-0.0449

Enquiry: Fill in the recorded composite z-score for this compound, with XIP peptide (Xip251-270) as test system: `CN(C)CCCCNC(=O)[C@H]1C[C@H]2C(=O)N3CCC[C@H]3C(=O)N2[C@H]1c1ccc(O)cc1`
Return: 0.538

Enquiry: Notebook: pull reported composite z-score for XIP peptide (Xip251-270), entry `CCOC(=O)C1=CC[C@@H](c2ccccc2)N(S(=O)(=O)c2ccc(C)cc2)C1`
Return: -0.654

Enquiry: Provide value of composite z-score for this record tested with XIP peptide (Xip251-270): `C=CCOC(=O)[C@@H]1[C@H]2C(=O)O[C@H](c3ccccc3)[C@H](c3ccccc3)N2[C@H](c2ccc(OCCOC(=O)[C@H]3C[C@H]4C(=O)N[C@@H](CC(C)C)C(=O)N4[C@H]3c3ccc(O)cc3)cc2)[C@@]12C(=O)Nc1ccc(I)cc12`
Return: 0.828

Enquiry: # returns recorded composite z-score (system: XIP peptide (Xip251-270)) for CC(C)(C)N1CC=CC23O[C@@H]4C=CCOC(=O)[C@@H]4[C@H]2C(=O)N(CCCO)[C@@H]3C1=O (some centres not stated)
Return: -0.825

====

PROCEDURE TEXT: compound binding in COS7 lysate, probe aLAP1, primary screen, cell lysate, small-molecule microarray (AID 1124);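 further: lysate comes from COS7 cells expressing LAP1 and is applied at 0.3 µg/mL; score merges spot fluorescence near 667 nm with signal-to-noise over triplicate slides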
TEST CONTEXT: probe aLAP1, fluorescence, higher = more signal
RESULT TYPE: composite z-score
Enter a number only.

Consider the reported composite z-score for these molecules:
molecule="COc1ccc(NN2C(C(O)c3ccccn3)C=CC3C(=O)N(C4CCCCC4)C(=O)C32)cc1 (stereo not given)" val=0.969
molecule="O=C1OCC=C[C@H]2OC34C=CCN(Cn5nnc6ccccc65)C(=O)[C@H]3N(CCCCCCO)C(=O)[C@@H]4[C@@H]12 (stereo not given in full)" val=0.79
molecule=C[C@H]1ON(c2ccc(C(=O)OC(C)(C)C)cc2)[C@@H](c2ccc(O)cc2)[C@@H]1C(=O)N1C(=O)OC[C@@H]1c1ccccc1 val=0.295
molecule=C=C(COC)/C(=C/C[C@@H](OC(=O)c1ccncc1)c1ccc(OCCO)cc1)c1cnc2ccccc2c1 val=0.39
molecule="CN1C(=O)C2C=CC(C(O)Cc3ccccc3)N(N(c3ccccc3)c3ccccc3)C2C1=O (stereo not given)" val=0.521

Enquiry: Fill in: composite z-score of `CC(=O)N1Cc2ccccc2C[C@]2(N=C(c3ccc(OCCCO)cc3)O[C@@H]2c2ccccc2)C1=O` is ___
Return: 0.451

Enquiry: Quick one: composite z-score of C=CC1c2cc(O)c(OC)cc2CCN1Cc1sc2ccccc2c1Cl (stereo not given) ?
Return: 0.381

Enquiry: # composite z-score lookup, item CCCCN1CC=CC23O[C@@H]4C=CCOC(=O)[C@@H]4[C@H]2C(=O)N(C(C)CO)[C@@H]3C1=O (stereo not given in full)
Return: -0.0435

Enquiry: Look up composite z-score: `COc1cc2c(cc1OC)CN(C(=O)[C@H]1[C@@H]3C(=O)O[C@@H](c4ccccc4)[C@@H](c4ccccc4)N3[C@@H](c3ccc(OCCO)cc3)[C@]13C(=O)Nc1ccc(C#CCCO)cc13)CC2`
Return: 1.25

Enquiry: # lookup: composite z-score of CC=CC(O)C1C=CC2C(=O)N(c3ccccc3)C(=O)C2N1Nc1ccccc1 (stereo not given)
Return: 0.243
